- TARGET_DESC: T1, Human PCSK9 Alexa Fluor 647 (human, UniProt Q8NBP7 31-692, limits assumed, Alexa Fluor 647 label (site not stated))
- T1 construct: Labelled tracer of the TR-FRET assay, 16 nM stock; also called proprotein convertase subtilisin/kexin type 9
- ASSAY_SUMMARY: TR-FRET competition: PCSK9-Alexa Fluor 647 vs LDLR ECD-Eu kryptate
pIC50: −log10 of the molar value. Bridge positions count the residues as written; N and C are the ends. Square brackets hold non-standard residues; d marks the D form. Bip = N[C@@H](Cc1ccc(-c2ccccc2)cc1)C(=O)O; NMeF = CN[C@@H](Cc1ccccc1)C(=O)O; NMeE = CN[C@@H](CCC(=O)O)C(=O)O; NMeA = CN[C@@H](C)C(=O)O

| BINDER | pIC50 |
| --- | --- |
| {CH2CO}-FVSTT[Bip][NMeA][Bip][NMeA]DRPCG-NH2 (thioether N-13, also called 1-2; Ex. No. 1-2) [Ac*-F-V-S-T-T-B-(N-Me)A-B-(N-Me)A-D-R-P-C*-G-NH2] | 8.89 |
| {CH2CO}-FVDTTS[NMeF][Bip][NMeA]ESPCG-NH2 (thioether N-13; SMILES CC(C)[C@@H]1NC(=O)[C@H](Cc2ccccc2)NC(=O)CSC[C@@H](C(=O)NCC(N)=O)NC(=O)[C@@H]2CCCN2C(=O)[C@H](CO)NC(=O)[C@H](CCC(=O)O)NC(=O)[C@H](C)N(C)C(=O)[C@H](Cc2ccc(-c3ccccc3)cc2)NC(=O)[C@H](Cc2ccccc2)N(C)C(=O)[C@H](CO)NC(=O)[C@H]([C@@H](C)O)NC(=O)[C@H]([C@@H](C)O)NC(=O)[C@H](CC(=O)O)NC1=O, also called 1-5; Ex. No. 1-5) [Ac*-F-V-D-T-T-S-(N-Me)F-B-(N-Me)A-E-S-P-C*-G-NH2] | 7.46 |
| {CH2CO}-FVDTTF[NMeA][Bip][NMeA]ESPCG-NH2 (thioether N-13; SMILES CC(C)[C@@H]1NC(=O)[C@H](Cc2ccccc2)NC(=O)CSC[C@@H](C(=O)NCC(N)=O)NC(=O)[C@@H]2CCCN2C(=O)[C@H](CO)NC(=O)[C@H](CCC(=O)O)NC(=O)[C@H](C)N(C)C(=O)[C@H](Cc2ccc(-c3ccccc3)cc2)NC(=O)[C@H](C)N(C)C(=O)[C@H](Cc2ccccc2)NC(=O)[C@H]([C@@H](C)O)NC(=O)[C@H]([C@@H](C)O)NC(=O)[C@H](CC(=O)O)NC1=O, also called 1-17; Ex. No. 1-17) [Ac*-F-V-D-T-T-F-(N-Me)A-B-(N-Me)A-E-S-P-C*-G-NH2] | 7.77 |
| {CH2CO}-FVNTTF[NMeA][Bip][NMeA][NMeE]APC-NHEt (thioether N-13; SMILES CCNC(=O)[C@@H]1CSCC(=O)N[C@@H](Cc2ccccc2)C(=O)N[C@@H](C(C)C)C(=O)N[C@@H](CC(N)=O)C(=O)N[C@@H]([C@@H](C)O)C(=O)N[C@@H]([C@@H](C)O)C(=O)N[C@@H](Cc2ccccc2)C(=O)N(C)[C@@H](C)C(=O)N[C@@H](Cc2ccc(-c3ccccc3)cc2)C(=O)N(C)[C@@H](C)C(=O)N(C)[C@@H](CCC(=O)O)C(=O)N[C@@H](C)C(=O)N2CCC[C@H]2C(=O)N1, also called 3-1; Ex. No. 3-1) [Ac*-F-V-N-T-T-F-(N-Me)A-B-(N-Me)A-(N-Me)E-A-P-C*-NHEt] | 7.07 |
| {CH2CO}-FVDTTA[NMeF][Bip][NMeA]EAPCG-NH2 (thioether N-13; SMILES CC(C)[C@@H]1NC(=O)[C@H](Cc2ccccc2)NC(=O)CSC[C@@H](C(=O)NCC(N)=O)NC(=O)[C@@H]2CCCN2C(=O)[C@H](C)NC(=O)[C@H](CCC(=O)O)NC(=O)[C@H](C)N(C)C(=O)[C@H](Cc2ccc(-c3ccccc3)cc2)NC(=O)[C@H](Cc2ccccc2)N(C)C(=O)[C@H](C)NC(=O)[C@H]([C@@H](C)O)NC(=O)[C@H]([C@@H](C)O)NC(=O)[C@H](CC(=O)O)NC1=O, also called 1-16; Ex. No. 1-16) [Ac*-F-V-D-T-T-A-(N-Me)F-B-(N-Me)A-E-A-P-C*-G-NH2] | 8.13 |
